Where these numbers come from: ChEMBL document CHEMBL1157539

Each item that follows carries a reported Inhibition.
# Test system: Plasmodium falciparum
# measurement_notes: GSK_TCMDC: Inhibition of Plasmodium falciparum 3D7 in whole red blood cells, using parasite LDH activity as an index of growth. Test compounds present at 2uM
# Type: functional
test_readout: Inhibition

{"columns": ["molecule", "experimental_value"],
 "data": [
  ["CCN(CC)CCN(CCN(CC)CC)c1ccc2c(c1)Sc1c(Cl)ccc(Cl)c1S2.Cl", "98%"],
  ["Cc1cccc2nc(-c3cccc(-c4cccc(NC(=O)Nc5ccc(F)c(F)c5F)c4)c3)[nH]c12", "100%"],
  ["COc1ccccc1C(C)NCC(=O)Nc1cccc(C(=O)Nc2cccc(C(F)(F)F)c2)c1 (stereo not drawn)", "91%"]
]}
